Quick reference: composite z-score of the listed items.
experiment: small molecules captured by biotinylated probe aFGF2 – biochemical, small-molecule microarray, fluorescence 635/667, stem cell growth factor project, primary screen (AID 1067); details: higher = more signal;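 further: measures binding of biotinylated aFGF2 protein to printed compounds on slides; z-score merges feature fluorescence and signal-to-noise across triplicate slides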

>  <smiles_code>
COc1ccc([Si](C)(C)[C@@H]2[C@@H](CC(=O)N(CCO)Cc3ccccc3)O[C@]3(C(=O)N(C)c4c(Br)cc(C)cc43)[C@H]2C)cc1

>  <composite z-score>
-0.13

$$$$
>  <smiles_code>
C=CCOC(=O)[C@@H]1[C@H]2C(=O)O[C@H](c3ccccc3)[C@H](c3ccccc3)N2[C@H](c2ccc(OCCOC(=O)[C@@H]3C[C@@H]4C(=O)N5CCC[C@H]5C(=O)N4[C@@H]3c3cccc(OCCO)c3)cc2)[C@@]12C(=O)Nc1ccc(I)cc12

>  <composite z-score>
-0.0927

$$$$
>  <smiles_code>
O=C1C[C@@](C(=O)O)(c2ccc([N+](=O)[O-])cc2)[C@@H](c2ccc(CO)cc2)N1CC12CC3CC(CC(C3)C1)C2

>  <composite z-score>
-0.009

$$$$

Would you mind telling me what composite z-score value was observed for C=CCOC(=O)[C@H]1[C@@H]2C(=O)O[C@@H](c3ccccc3)[C@@H](c3ccccc3)N2[C@@H](c2ccc(OCCOC(=O)[C@H]3C[C@H]4C(=O)N[C@@H](CCCCN(C)C)C(=O)N4[C@H]3c3ccc(O)cc3)cc2)[C@]12C(=O)Nc1ccccc12 ?
-0.033

Can you check [N-]=[N+]=NCc1ccccc1C[C@]1(C(=O)NCCN2CCOCC2)COC(c2ccc(OCCCO)cc2)=N1 next?
-0.0647
